These measurements were taken from ChEMBL document CHEMBL3792308.

Test: Cytotoxicity against human HuH7 cells infected with HCV assessed as reduction in cellular rRNA level after 96 hrs by qRT-PCR analysis
Assay type: cell-based, Huh-7
property.label: CC50 at 96 h

For CCOC(=O)[C@H](C)NP(=O)(OC[C@H]1O[C@@H](n2cnc3c(OC)nc(O)nc32)[C@](C)(O)[C@@H]1O)Oc1ccccc1 (stereo not given in full) , write its CC50 at 96 h.
> 10 µM

For CCOC(=O)[C@H](C)NP(=O)(OC[C@H]1O[C@@H](n2cnc3c(N=[N+]=[N-])nc(N)nc32)[C@](C)(O)[C@@H]1O)Oc1ccccc1 (stereo not given in full) , write its CC50 at 96 h.
> 10 µM

For C=C(OCC)c1nc(N)nc2c1ncn2[C@@H]1O[C@H](COP(=O)(N[C@@H](C)C(=O)OCC)Oc2ccccc2)[C@@H](O)[C@@]1(C)O (stereo not given in full) , write its CC50 at 96 h.
> 10 µM

For CCOC(=O)[C@H](C)NP(=O)(OC[C@H]1O[C@@H](n2cnc3c(N)nc(Cl)nc32)[C@](C)(O)[C@@H]1O)Oc1ccccc1 (stereo not given in full) , write its CC50 at 96 h.
> 10 µM

For `CCOP(=O)(OCC)c1nc(N)nc2c1ncn2[C@@H]1O[C@H](CO)[C@@H](O)[C@@]1(C)O` , write its CC50 at 96 h.
> 10 µM

For `C[C@@]1(O)[C@H](O)[C@@H](CO)O[C@H]1n1cnc2c(ONC(=O)OCc3ccccc3)nc(N)nc21` , write its CC50 at 96 h.
> 10 µM

For CCOC(=O)[C@H](C)NP(=O)(OC[C@H]1O[C@@H](n2cnc3c(N)nc(OC)nc32)[C@](C)(O)[C@@H]1O)Oc1ccccc1 (stereo not given in full) , write its CC50 at 96 h.
> 10 µM

For CC(C)(CO)C(=O)SCCOP(=O)(NCc1ccccc1)OC[C@H]1O[C@@H](n2cnc3c(=O)[nH]c(N)nc32)[C@](C)(O)[C@@H]1O (stereo not given in full) , write its CC50 at 96 h.
> 100 µM

For `C[C@@]1(O)[C@H](O)[C@@H](CO)O[C@H]1n1cnc2c(NO)nc(N)nc21` , write its CC50 at 96 h.
> 10 µM

For `C[C@@]1(O)[C@H](O)[C@@H](CO)O[C@H]1n1cnc2c(N=[N+]=[N-])nc(N)nc21` , write its CC50 at 96 h.
> 10 µM

For `COc1nc(OC)c2ncn([C@@H]3O[C@H](CO)[C@@H](O)[C@@]3(C)O)c2n1` , write its CC50 at 96 h.
> 10 µM

For CCOC(=O)[C@H](C)NP(=O)(OC[C@H]1O[C@@H](n2cnc3c(P(=O)(OCC)OCC)nc(N)nc32)[C@](C)(O)[C@@H]1O)Oc1ccccc1 (stereo not given in full) , write its CC50 at 96 h.
> 10 µM

For CCOC(=O)[C@H](C)NP(=O)(OC[C@H]1O[C@@H](n2cnc3c(N)nc(NOC)nc32)[C@](C)(O)[C@@H]1O)Oc1ccccc1 (stereo not given in full) , write its CC50 at 96 h.
> 10 µM

For CCOC(=O)[C@H](C)NP(=O)(OC[C@H]1O[C@@H](n2cnc3c(OC)nc(ONC(=O)OCc4ccccc4)nc32)[C@](C)(O)[C@@H]1O)Oc1ccccc1 (stereo not given in full) , write its CC50 at 96 h.
> 33 µM

For `C[C@@]1(O)[C@H](O)[C@@H](CO)O[C@H]1n1cnc2c(N)nc(Cl)nc21` , write its CC50 at 96 h.
> 10 µM
